# Target system: IRE1a (Homo sapiens)
# Sequence (O75460 19-977): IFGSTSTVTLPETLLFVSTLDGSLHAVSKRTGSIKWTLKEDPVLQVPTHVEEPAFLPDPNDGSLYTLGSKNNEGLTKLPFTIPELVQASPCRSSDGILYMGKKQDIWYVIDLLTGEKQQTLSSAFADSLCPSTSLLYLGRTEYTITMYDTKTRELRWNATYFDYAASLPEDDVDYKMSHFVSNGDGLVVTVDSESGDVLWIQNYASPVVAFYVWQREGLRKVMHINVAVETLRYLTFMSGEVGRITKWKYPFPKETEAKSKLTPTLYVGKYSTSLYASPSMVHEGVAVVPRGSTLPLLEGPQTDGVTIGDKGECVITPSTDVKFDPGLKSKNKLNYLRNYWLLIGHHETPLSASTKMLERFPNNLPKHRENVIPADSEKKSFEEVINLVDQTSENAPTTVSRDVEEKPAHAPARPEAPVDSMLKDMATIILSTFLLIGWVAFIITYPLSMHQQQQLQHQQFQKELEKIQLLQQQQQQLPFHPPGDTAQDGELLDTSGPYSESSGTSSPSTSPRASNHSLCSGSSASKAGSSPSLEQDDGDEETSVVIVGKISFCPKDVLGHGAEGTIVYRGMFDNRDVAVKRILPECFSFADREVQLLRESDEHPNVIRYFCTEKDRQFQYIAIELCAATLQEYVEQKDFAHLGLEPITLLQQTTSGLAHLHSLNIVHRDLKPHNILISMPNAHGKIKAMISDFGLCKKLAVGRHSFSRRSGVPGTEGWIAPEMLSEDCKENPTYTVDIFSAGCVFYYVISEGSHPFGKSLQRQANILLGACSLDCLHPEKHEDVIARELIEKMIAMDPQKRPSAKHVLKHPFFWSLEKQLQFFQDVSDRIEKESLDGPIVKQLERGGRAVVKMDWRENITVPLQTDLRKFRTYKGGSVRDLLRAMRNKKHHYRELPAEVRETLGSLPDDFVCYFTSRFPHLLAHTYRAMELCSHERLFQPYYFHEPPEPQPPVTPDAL
Counter-ions that a name gives are not always drawn.
Measurement type: IC50

> print(dat)
                                    compound  measurement.type   reported.value
 1  CCc1c(F)c(-c2cc(F)c(NS(=O)(=O)c3ccccc3Cl)nc2C)cc2cnc(N[C@H]3CC[C@H](N(C)C)CC3)nc12 [162; Formic Acid Salt]              IC50           ≤ 5 nM
 2  N[C@H]1CCC[C@@H](Nc2ncc3cc(-c4ccc(NS(=O)(=O)c5ccccc5Cl)c(F)c4)ccc3n2)C1 [75; Formic Acid Salt]              IC50           ≤ 5 nM
 3  COc1nc(NS(=O)(=O)c2ccccc2Cl)c(F)cc1-c1ccc2nc(N[C@H]3CC[C@H](N(C)C)CC3)ncc2c1 [149; Formic Acid Salt]              IC50           ≤ 5 nM
 4  COc1nc(NS(=O)(=O)c2ccccc2Cl)c(F)cc1-c1cc(C)c2nc(N[C@H]3CC[C@@H](N(C)C)CC3)ncc2c1 [147; Formic Acid Salt]              IC50       5 to 50 nM
 5  Cc1nc(NS(=O)(=O)c2ccccc2Cl)c(F)cc1-c1ccc2nc(N[C@H]3CC[C@H](N(C)C)CC3)ncc2c1 [153; Formic Acid Salt]              IC50           ≤ 5 nM
 6  COc1nc(NS(=O)(=O)c2ccccc2Cl)ccc1-c1cc(F)c2nc(N[C@H]3CC[C@H](N(C)C)CC3)ncc2c1 [148; Formic Acid Salt]              IC50           ≤ 5 nM
 7  COc1nc(NS(=O)(=O)c2ccccc2Cl)ccc1-c1cc(C)c2nc(N[C@H]3CC[C@H](N(C)C)CC3)ncc2c1 [133; Formic Acid Salt]              IC50           ≤ 5 nM
 8  COc1nc(NS(=O)(=O)c2ccccc2Cl)c(F)cc1-c1cc(F)c2nc(N[C@H]3CC[C@H](N(C)C)CC3)ncc2c1 [155; Formic Acid Salt]              IC50           ≤ 5 nM
 9  CCc1c(F)c(-c2cc(F)c(NS(=O)(=O)c3ccccc3Cl)nc2OC)cc2cnc(N[C@H]3CC[C@H](N(C)C)CC3)nc12 [163; Formic Acid Salt]              IC50           ≤ 5 nM
10  N[C@H]1CC[C@H](Nc2ncc3cc(-c4cc(F)c(NS(=O)(=O)c5ccccc5Cl)cc4F)ccc3n2)CC1 [53; Formic Acid Salt]              IC50           ≤ 5 nM
11  Cc1nc(NS(=O)(=O)c2ccccc2Cl)c(F)cc1-c1cc(F)c2nc(N[C@H]3CC[C@H](N(C)C)CC3)ncc2c1 [156; Formic Acid Salt]              IC50  100 to 10000 nM
12  CCc1cc(-c2ccc(NS(=O)(=O)c3ccccc3Cl)nc2C)cc2cnc(N[C@H]3CC[C@H](N(C)CC(F)(F)F)CC3)nc12 [126; Formic Acid Salt]              IC50     50 to 100 nM
13  CCc1cc(-c2ccc(NS(=O)(=O)c3cccc(F)c3Cl)nc2C)cc2cnc(N[C@H]3CC[C@H](N(C)C)CC3)nc12 [158; Formic Acid Salt]              IC50           ≤ 5 nM
14  CCc1cc(-c2ccc(NS(=O)(=O)c3ccccc3Cl)nc2OC)cc2cnc(N[C@H]3CC[C@@H](N(C)C)CC3)nc12 [141; Formic Acid Salt]              IC50           ≤ 5 nM
15  CCc1cc(-c2cc(F)c(NS(=O)(=O)c3ccccc3Cl)nc2OC)cc2cnc(N[C@H]3CC[C@H](NC)CC3)nc12 [127; Formic Acid Salt]              IC50           ≤ 5 nM
16  CCc1cc(-c2cc(F)c(NS(=O)(=O)c3ccccc3Cl)nc2OC)cc2cnc(N[C@H]3CC[C@H](N(C)C)CC3)nc12 [128; Formic Acid Salt]              IC50           ≤ 5 nM
17  CCc1cc(-c2cnc(NS(=O)(=O)c3ccccc3Cl)c(F)c2)cc2cnc(N[C@H]3CC[C@H](N(C)C)CC3)nc12 [95; Formic Acid Salt]              IC50           ≤ 5 nM
18  CCc1cc(-c2ccc(N(C)S(=O)(=O)c3ccccc3Cl)cc2C)cc2cnc(N[C@H]3CC[C@H](N)CC3)nc12 [31; Formic Acid Salt]              IC50  100 to 10000 nM
19  CCc1cc(-c2ccc(NS(=O)(=O)c3ccccc3Cl)nc2C)cc2cnc(N[C@H]3CC[C@H](N(C)C)C[C@@H]3F)nc12 [151; Formic Acid Salt]              IC50           ≤ 5 nM
20  CCc1cc(-c2ccc(NS(=O)(=O)c3ccccc3Cl)nc2OC)cc2cnc(N[C@H]3CC[C@H](N(C)C)CC3)nc12 [99; Formic Acid Salt]              IC50           ≤ 5 nM
21  CCc1cc(-c2ccc(NS(=O)(=O)c3cccc(C)c3Cl)nc2C)cc2cnc(N[C@H]3CC[C@H](N(C)C)CC3)nc12 [160; Formic Acid Salt]              IC50           ≤ 5 nM
22  CCc1cc(-c2cnc(NS(=O)(=O)c3ccccc3Cl)nc2OC)cc2cnc(N[C@H]3CC[C@H](N(C)C)CC3)nc12 [154; Formic Acid Salt]              IC50           ≤ 5 nM
23  COCc1cc(-c2ccc(NS(=O)(=O)c3ccccc3Cl)nc2OC)cc2cnc(N[C@H]3CC[C@H](N(C)C)CC3)nc12 [137; Formic Acid Salt]              IC50           ≤ 5 nM
24  CCc1cc(-c2nnc(NS(=O)(=O)c3ccccc3Cl)cc2OC)cc2cnc(N[C@H]3CC[C@H](N(C)C)CC3)nc12 [159; Formic Acid Salt]              IC50           ≤ 5 nM

---

Where a name gives a salt, the structure may show the parent alone.
Data export: IC50 values recorded with IRE1a (Homo sapiens).
Measurement type: IC50

> print(dat)
                                   compound  measurement.type  reported.value
1  CCc1cc(-c2ccc(NS(=O)(=O)c3ccccc3Cl)nc2OC)cc2cnc(N[C@H]3CC[C@@](C)(N(C)C)CC3)nc12 [143; Formic Acid Salt]              IC50      5 to 50 nM
2  CCc1cc(-c2ccc(NS(=O)(=O)c3ccccc3Cl)nn2)cc2cnc(N[C@H]3CC[C@H](NC)CC3)nc12 [61; Formic Acid Salt]              IC50          ≤ 5 nM
3  Cc1nc(NS(=O)(=O)c2ccccc2Cl)ccc1-c1cc(C(C)(F)F)c2nc(N[C@H]3CC[C@H](N(C)C)CC3)ncc2c1 [131; Formic Acid Salt]              IC50          ≤ 5 nM
4  CCc1cc(-c2ccc(NS(=O)(=O)c3ccccc3Cl)nn2)cc2cnc(N[C@H]3CC[C@H](N(C)C)CC3)nc12 [64; Formic Acid Salt]              IC50          ≤ 5 nM
5  CN[C@H]1CC[C@H](Nc2ncc3cc(-c4cc(F)c(NS(=O)(=O)c5ccccc5Cl)nc4OC)ccc3n2)CC1 [150; Formic Acid Salt]              IC50          ≤ 5 nM
6  CCc1c(F)c(-c2ccc(NS(=O)(=O)c3ccccc3Cl)nc2C)cc2cnc(N[C@H]3CC[C@H](N(C)C)CC3)nc12 [161; Formic Acid Salt]              IC50          ≤ 5 nM
